- EXPERIMENT: recombinant barcode read abundance after kanamycin selection (control-corrected) (log10(CPM+1)); higher = more efficient recombination; sequences stand for … in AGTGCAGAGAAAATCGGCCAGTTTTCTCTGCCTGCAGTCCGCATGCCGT…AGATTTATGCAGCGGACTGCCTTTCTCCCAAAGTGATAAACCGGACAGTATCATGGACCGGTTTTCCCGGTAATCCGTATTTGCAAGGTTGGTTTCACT; site = the 11-nt target;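 further: IS621 recombinase and bridge RNA in Escherichia coli cells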
MEASURE: recombinant barcode read abundance (log10)

- SEQUENCE RECORD: "GCCGAGACTTGGGTTCTAACCTGTTGCCT (site GCCGAGACTAG)"
  ENDPOINT RESULT: 0.34
- SEQUENCE RECORD: "ACTGATCCTTGGGTTCTAACCTGTTGCCT (site ACTGATGCTAG)"
  ENDPOINT RESULT: 0.671
- SEQUENCE RECORD: "CGAGCAACTTGGGTTCTAACCTGTTGCTT (site CGAGCAACTAA)"
  ENDPOINT RESULT: 0.0517
- SEQUENCE RECORD: "CCGTAATCTTGGGTTCTAACCTGTTGCCT (site CCGTAACCTAG)"
  ENDPOINT RESULT: 0.47
- SEQUENCE RECORD: "CTGGTCCCTTGGGTTCTAACCTGTTGCGG (site CTGGTCCCTCC)"
  ENDPOINT RESULT: 2.72
- SEQUENCE RECORD: "GTGTGTTCTTGGGTTCTAACCTGTTGCCT (site GTGTGTCCTAG)"
  ENDPOINT RESULT: 0.0466
- SEQUENCE RECORD: "TAGTACGCTTGGGTTCTAACCTGTTGCTT (site ACACGGCCTCG)"
  ENDPOINT RESULT: 0.331
- SEQUENCE RECORD: "TATTGATCTTGGGTTCTAACCTGTTGCCT (site TATTGATCTAG)"
  ENDPOINT RESULT: 0.235
- SEQUENCE RECORD: "GCACGTGCTTGGGTTCTAACCTGTTGCCT (site GCCCGTGCTAG)"
  ENDPOINT RESULT: 0.141
- SEQUENCE RECORD: "TTCCCCACTTGGGTTCTAACCTGTTGCCT (site AATATAGCTTA)"
  ENDPOINT RESULT: 0.115
- SEQUENCE RECORD: "GAGGTCACTTGGGTTCTAACCTGTTGCTA (site GAGGTCACTTA)"
  ENDPOINT RESULT: 2.26
- SEQUENCE RECORD: "CGTCGTACTTGGGTTCTAACCTGTTGCCT (site CGCCGTACTAG)"
  ENDPOINT RESULT: 0.0657
- SEQUENCE RECORD: "CCGCTTACTTGGGTTCTAACCTGTTGCCT (site CCGCTCGCTAG)"
  ENDPOINT RESULT: 0.0115
- SEQUENCE RECORD: "GGGAAGACTTGGGTTCTAACCTGTTGCCT (site GGTAAGACTAG)"
  ENDPOINT RESULT: 0.333
- SEQUENCE RECORD: "CTACGTCCTTGGGTTCTAACCTGTTGCTG (site CTACGTCCTCA)"
  ENDPOINT RESULT: 1.64
- SEQUENCE RECORD: "GCCTATTCTTGGGTTCTAACCTGTTGCGT (site GCCTATTCTAC)"
  ENDPOINT RESULT: 0.4
- SEQUENCE RECORD: "CTCATAGCTTGGGTTCTAACCTGTTGCGA (site TGAGGGACTAG)"
  ENDPOINT RESULT: 0.0808
- SEQUENCE RECORD: "GGGCACTCTTGGGTTCTAACCTGTTGCGT (site GGGCACTCTAG)"
  ENDPOINT RESULT: 0.161
- SEQUENCE RECORD: "ACTGGTACTTGGGTTCTAACCTGTTGCCT (site ACGGGTACTAG)"
  ENDPOINT RESULT: 0.161
- SEQUENCE RECORD: "CTTCGAGCTTGGGTTCTAACCTGTTGCCG (site CTTCGAGCTCA)"
  ENDPOINT RESULT: 0.112
- SEQUENCE RECORD: "TCGCCTTCTTGGGTTCTAACCTGTTGCCT (site TCGCCTTCTAG)"
  ENDPOINT RESULT: 0.364
- SEQUENCE RECORD: "CTATCGACTTGGGTTCTAACCTGTTGCCT (site CTATTGACTAG)"
  ENDPOINT RESULT: 0.0575
- SEQUENCE RECORD: "TTCGTTGCTTGGGTTCTAACCTGTTGCCT (site ATCGTTGCTAG)"
  ENDPOINT RESULT: 0.0494
- SEQUENCE RECORD: "GGGGAGTCTTGGGTTCTAACCTGTTGCTT (site GGGGAGTCTAA)"
  ENDPOINT RESULT: 2.26
- SEQUENCE RECORD: "CGACTCCCTTGGGTTCTAACCTGTTGCGT (site GTCAAGTCTGA)"
  ENDPOINT RESULT: 0.391
- SEQUENCE RECORD: "CATAGTCCTTGGGTTCTAACCTGTTGCCT (site CAGAGTCCTAA)"
  ENDPOINT RESULT: 0.0573
- SEQUENCE RECORD: "TTGCCAACTTGGGTTCTAACCTGTTGCCT (site TTGCAAACTAG)"
  ENDPOINT RESULT: 0.146
- SEQUENCE RECORD: "GAGAGGTCTTGGGTTCTAACCTGTTGCAT (site GAGAGGTCTAT)"
  ENDPOINT RESULT: 1.82
- SEQUENCE RECORD: "GTGGCCACTTGGGTTCTAACCTGTTGCCT (site GTAGCCACTAG)"
  ENDPOINT RESULT: 1.86
- SEQUENCE RECORD: "TCGTGCACTTGGGTTCTAACCTGTTGCCT (site TCGTGCTCTAG)"
  ENDPOINT RESULT: 0.178
- SEQUENCE RECORD: "GGAAGCCCTTGGGTTCTAACCTGTTGCTA (site GGAAGCCCTTA)"
  ENDPOINT RESULT: 0.694
- SEQUENCE RECORD: "CATCGCTCTTGGGTTCTAACCTGTTGCTT (site CACCGTTCTAA)"
  ENDPOINT RESULT: 0.0858
- SEQUENCE RECORD: "TAGCCTTCTTGGGTTCTAACCTGTTGCCT (site TCGCCTTCTAG)"
  ENDPOINT RESULT: 0.204
- SEQUENCE RECORD: "AACCAGTCTTGGGTTCTAACCTGTTGCGA (site AACCAGTCTTC)"
  ENDPOINT RESULT: 1.38
- SEQUENCE RECORD: "ACGGTCACTTGGGTTCTAACCTGTTGCCG (site AGGGGCACTCG)"
  ENDPOINT RESULT: 0.533
- SEQUENCE RECORD: "CTCCGTCCTTGGGTTCTAACCTGTTGCCT (site CTCCGTCCTAG)"
  ENDPOINT RESULT: 1.5
- SEQUENCE RECORD: "TGGTGCCCTTGGGTTCTAACCTGTTGCGT (site TGGTGCCCTAC)"
  ENDPOINT RESULT: 1.83
- SEQUENCE RECORD: "GCCGAGACTTGGGTTCTAACCTGTTGCCT (site GCCGAAACTAG)"
  ENDPOINT RESULT: 0.48
- SEQUENCE RECORD: "AGTAGTTCTTGGGTTCTAACCTGTTGCAG (site CTCGTAGCTAG)"
  ENDPOINT RESULT: 0.104
- SEQUENCE RECORD: "CTGAGCCCTTGGGTTCTAACCTGTTGCTG (site CTGAGCCCTCA)"
  ENDPOINT RESULT: 1.5
- SEQUENCE RECORD: "GGTAAGACTTGGGTTCTAACCTGTTGCCT (site GGGAAGACTAG)"
  ENDPOINT RESULT: 0.197
- SEQUENCE RECORD: "TCCAAGACTTGGGTTCTAACCTGTTGCAG (site TCCAAGACTCT)"
  ENDPOINT RESULT: 1.72
